meta.source: paper PMC5540273

Tested on: NEK5;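 also: KINOMEscan kinase panel screen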
Conditions: concentration: 1 μM, replicates: in singlicate; n = 1
measured_endpoint: %Inh (%)

1) Cc1cc(NCC(c2ccccc2)c2ccccc2)nc(NCc2ccc(C(F)(F)F)cc2)n1 [GW497681]: 0
2) O=C(Nc1ccccc1)Nc1cccc(Oc2ccc3nccn3n2)c1: 0
3) Cc1cccc(-c2nc(-c3ccc(S(C)(=O)=O)cc3)sc2-c2ccnc(NCCc3ccccc3)c2)c1: 2
4) Cc1ccc(NC(=O)Nc2cc(C(C)(C)C)nn2-c2ccccc2)cc1 [GSK1014915]: 0
5) Cn1ccc2ncnc(Oc3ccc(Nc4nc5ccccc5[nH]4)cc3)c21: 0
6) Cc1c(Cn2ccn3c(=O)cc(N4CCOCC4)nc23)cccc1C(F)(F)F [GSK2289044]: 2
7) CS(=O)(=O)c1ccc(-c2nc3n(c2-c2ccncc2)CCC3)cc1 [SKF-105942]: 1
8) Cl.NC(=O)c1cccc(Nc2nccc(Nc3ccc(Oc4cccc(Cl)c4)c(Cl)c3)n2)c1 [GW659008]: 32
9) Cc1cccc(-c2nc(Nc3ccc4[nH]ncc4c3)c3ccccc3n2)n1 [GW857175]: 8
10) Cc1cccc(-c2nc(Nc3ccncc3)c3ccccc3n2)n1 [GW855857]: 10
11) Cc1cccc(-c2nc(Nc3cccc(C(N)=O)c3)c3ccccc3n2)n1 [GW876019]: 12
12) COc1cc(Nc2nccc(N3CCC(NC(=O)Nc4cc(C)ccc4C)C3)n2)cc(OC)c1OC (stereo not shown) [GSK1379762]: 91.6
13) Cc1c(O)cccc1Nc1ccnc2ccc(C(F)(F)F)cc12.Cl [GW466413]: 0
14) CC1=C(C(=O)Nc2cc3cn[nH]c3cc2F)C(c2ccc(C(F)(F)F)cc2)CC(=O)N1 (stereo not shown) [GSK429286]: 0
15) Fc1cc(Cl)ccc1Nc1ccnc2cc(I)ccc12 [GW551191]: 0
16) O=C(Nc1n[nH]c2nc(-c3nccs3)c(Br)cc12)C1CC1 [SB-742251]: 10
17) CS(=O)(=O)c1ccc(-c2c(-c3ncn[nH]3)sc(N3CCOCC3)c2C#N)cc1: 7
18) Cc1ccccc1-n1cnc2c(N)ncnc21 [SKF-97510]: 9
19) Cl.O=C(Nc1cccc(-c2nn3ncccc3c2-c2ccnc(Nc3cccnc3)n2)c1)c1c(F)cccc1F [GSK312879]: 0
